Just for reference, patent US12102619B2 is where these values come from.

Experimental Protocol: Steady state AUC of CBD by daily dose
Particulars: human, in vivo, 5 mg/kg/day
Measurement Kind: AUC(0-t) (ng·h/mL)
State just the number; it will be interpreted in ng·h/mL.

Could you tell me which AUC(0-t) is on file for C=C(C)[C@@H]1CCC(C)=C[C@H]1c1c(O)cc(CCCCC)cc1O [CBD, Cannabidiol] ?
241

###

Experimental Protocol: Steady state AUC of CBD by daily dose
Particulars: human, in vivo, 10 mg/kg/day
Description: In some embodiments, the AUCt1-t2 is reported as a geometric mean (% coefficient of variation).
Measurement Kind: AUC(0-t) (ng·h/mL)
State just the number; it will be interpreted in ng·h/mL.

Could you tell me which AUC(0-t) is on file for "C=C(C)[C@@H]1CCC(C)=C[C@H]1c1c(O)cc(CCCCC)cc1O" ?
722
